- Run description: compound binding in COS7 lysate, probe aLAP1, primary screen, cell lysate, small-molecule microarray (AID 1124);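 note: lysate comes from COS7 cells expressing LAP1 and is applied at 0.3 µg/mL; score merges spot fluorescence near 667 nm with signal-to-noise over triplicate slides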
- Details: probe aLAP1, fluorescence, higher = more signal
Reported composite z-score values follow for various compounds

>>> value("CC(=O)n1cc(C(O)C2C=CC3C(=O)N(c4ccccc4)C(=O)C3N2Nc2ccccc2F)c2ccccc21 (centres undefined)")
0.386
>>> value("CN1C=C(C(=O)OCCS(C)(=O)=O)C(C(=O)OCCS(C)(=O)=O)=CC(CCCO)=CC1c1ccc(CN2CCCC2)cc1 (centres undefined)")
-0.197

get_value(item= `CCCC=C(CCC)[C@@H](NC(=O)c1ccccc1)c1ccc(C(=O)OC)cc1` , readout=composite z-score) returns 0.0914

composite z-score measured on COc1ccc(C(O)C2C=CC3C(=O)N(C)C(=O)C3N2Nc2ccc([N+](=O)[O-])cc2[N+](=O)[O-])cc1OCc1ccccc1 (centres undefined) = 0.53

---

- Run description: small-molecule microarray binders of probe aNog, primary screen, biochemical, biotinylated probe, 635/667 nm fluorescence (AID 1115);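 note: probe is biotinylated aNog protein used at 0.15 µg/mL for 1 h at 4 C; z-score combines 667 nm fluorescence of each spot with its signal to noise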
- Details: higher = more signal
Observable: composite z-score
Returns: the value as a bare number; no unit string appended.

>>> value("[N-]=[N+]=NCc1ccccc1C[C@@]1(C(=O)O)N=C(c2ccc(OCCCO)cc2)O[C@@H]1c1ccccc1CN=[N+]=[N-]")
-0.56

Form field composite z-score, entry `COCCOC(=O)N1C(=O)[C@@]2(c3cc(C#Cc4ccc(OC)cc4)ccc31)[C@H](C(=O)Nc1nc3ccccc3s1)[C@H]1C(=O)O[C@H](c3ccccc3)[C@H](c3ccccc3)N1[C@@H]2c1ccccc1OCCO` : -0.7

Lab note: measured composite z-score of C=CCC(OC(C)=O)[C@@H]1[C@@H](N(Cc2ccc(-c3cccc(C(F)(F)F)c3)o2)C(=O)Cc2ccc(F)cc2)c2cc(OCCCO)ccc2N1C(=O)c1ccc2ccccc2c1 (stereo not given in full) was -0.624

Reported composite z-score ( `CC1(C)OC[C@@]23C=C(Br)[C@@H](C[C@H]12)[C@@]1(CO1)C3=O` ) = -0.132

Lab book: composite z-score of C=CCC(OC(C)=O)[C@@H]1[C@@H](N(Cc2ccc(-c3ccccc3)cc2)C(=O)c2ccc(C)cc2)c2cc(OCCCO)ccc2N1C(=O)c1ccc2ccccc2c1 (stereo not given in full) noted as -0.448

Kindly note the recorded composite z-score for `CCCCC(=C=CC[C@@H](O)c1cccc(OCCO)c1)C[C@@H](O)COCc1ccccc1` , which is -0.219

Noted for `COCCOC(=O)N1C(=O)[C@@]2(c3cc(C#CCCO)ccc31)[C@H](C(=O)N1CCN(c3ncccn3)CC1)[C@H]1C(=O)O[C@H](c3ccccc3)[C@H](c3ccccc3)N1[C@@H]2c1ccc(O)cc1` : its composite z-score reads 1.01

Reported composite z-score ( CC(C)(C)N1CC=CC23O[C@@H]4/C=C\CCCOC(=O)C4[C@H]2C(=O)N(CCCCCCO)[C@@H]3C1=O (stereo not given in full) ) = 0.382

Per the records, this compound ( CC=CC(O)C1C=CC2C(=O)N(C)C(=O)C2N1NC(=O)OC(C)(C)C (stereo not given) ) has composite z-score equal to -0.135

// field: composite z-score; key: `CC(C)CNC(=O)[C@@H]1c2ccccc2C(=O)N(Cc2ccccc2)[C@H]1c1ccc(CO)cc1` ; value = 0.127

Sure, the documented composite z-score for `C=C(C(=O)CC[C@@H](OC(C)=O)c1cccc(OCCO)c1)C(C)C` is -0.0863

get_value(item= `[N-]=[N+]=Nc1ccccc1[C@@H]1OC(c2ccc(OCCCO)cc2)=N[C@]1(Cc1ccccc1)C(N)=O` , readout=composite z-score) returns -0.0956

Value of measured composite z-score for the entry `COCC1=C([C@H](O)CCc2ccccc2)[C@H](CO)n2c(=O)n(-c3ccccc3)c(=O)n2C1` : -0.0927

Value of composite z-score reported for the compound `CO[C@H]1O[C@H](CO)[C@@H](OC(=O)Nc2ccc(C(F)(F)F)cc2)[C@H](OC(=O)Nc2ccccc2-c2ccccc2)[C@@H]1OC(=O)Nc1ccccc1-c1ccccc1` is 0.977

Input CCCCC(O)C1C=CC2C(=O)N(C)C(=O)C2N1Nc1ccccc1 (stereo not given) . Output composite z-score: -0.0683

Measured values drawn from PubChem BioAssay for this set.
